A collection of variants and their measured self-cleavage
B1: CPEB3 Ribozyme (parent)
chain: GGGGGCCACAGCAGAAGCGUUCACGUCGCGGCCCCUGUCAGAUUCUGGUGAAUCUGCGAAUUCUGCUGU

# Variants of: B1
# experiment: self-cleavage, relative activity (ratio to wild type); higher = more cleavage; co-transcriptional
observable: self-cleavage

> print(dat)
    alteration  numeric.value
 1    G1C U55A          0.189
 2   U61C U69C           1.02
 3    A8G C29A          0.647
 4   A13C G56C          0.367
 5    G3A G48U          0.722
 6   G56C C57G          0.343
 7   C24A G31C          0.132
 8   C18G U26C          0.175
 9   U36G C39G           0.24
10    G5C C39A          0.134
11   A13U U69A           0.89
12   A51C U55A          0.643
13   A59U G65A          0.531
14   C32G G65C          0.224
15   U38A G41C          0.675
16   U38G A42U          0.178
17   U21G G41U          0.373
18   U21A G47C          0.988
19   A23G G56C          0.751
20    C7U A59G           0.93
21   C24G C33U           0.38
22   A15C A42G          0.678
